# experimental details: Inhibition of GSK3-beta phosphorylation in human BT474 cells
pIC50: −log10 of the molar value.
Below: a set of entries, each annotated with reported pIC50.
quantity kind: pIC50

> print(dat)
                           smiles.structure  measured
1  Cc1n[nH]c2ncc(-c3cc(OC[C@@H](N)Cc4c[nH]c5ccccc45)cnc3-c3ccoc3)cc12      6.59
2  Cc1n[nH]c2ncc(-c3cc(OC[C@@H](N)Cc4c[nH]c5ccccc45)cnc3-c3ccoc3)nc12      6.80
3  Cc1n[nH]c2ccc(-c3cc(OC[C@@H](N)Cc4c[nH]c5ccccc45)cnc3-c3ccoc3)nc12      5.41
4  Cc1n[nH]c2cnc(-c3cc(OC[C@@H](N)Cc4c[nH]c5ccccc45)cnc3-c3ccoc3)cc12      7.19
